src = patent US20250282866A1

test.system: T1, human TREM2 (human, UniProt Q9NZC2 19-174, limits assumed)
T1 construct: also called triggering receptor expressed on myeloid cells 2
T1 sequence: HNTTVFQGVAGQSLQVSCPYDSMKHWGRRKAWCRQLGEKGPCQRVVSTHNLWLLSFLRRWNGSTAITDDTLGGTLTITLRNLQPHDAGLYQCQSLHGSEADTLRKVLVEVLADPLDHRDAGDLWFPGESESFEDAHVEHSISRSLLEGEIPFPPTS
method: 2nd screen 10 nM
This listing pairs binders with measured Binding Signal (fold over 6E7 Parental antibody).
endpoint: Binding Signal (fold over 6E7 Parental antibody) (fold)

binder	uom	test.value
V17 (antibody, V domains shown) VH: EVQLVQSGAEVKKPGESLKISCKGSGYSFGSYWIAWVRQMPGKGLEWMGIIYPGDSDTRYSPSFQGQVTISADKSISTAYLQWSSLKASDTAMYFCARSRTFYYDSSDYFDYWGQGTLVTVSS VL: DIQMTQSPSSVSASVGDRVTITCRASQGISSWLAWYQQKPGKAPKLLIYAASSRQNGVPSRFSGSGSGTDFTLTISSLQPEDFATYFCQQADSSPRTFGQGTKLEIK	fold	5.51
V37 (antibody, V domains shown) VH: EVQLVQSGAEVKKPGESLKISCKGSGYSHTSYWIAWVRQMPGKGLEWMGIIYPGDSDTRYSPSFAGQVTISADKSISTAYLQWSSLKASDTAMYFCARSRTFYYDSSDYFDYWGQGTLVTVSS VL: DIQMTQSPSSVSASVGDRVTITCRASQGISSWLAWYQQKPGKAPKLLIYAASSLQWGVPSRFSGSGSGTDFTLTISSLQPEDFATYFCQQADSYPRTFGQGTKLEIK	fold	3.49
V5 (antibody, V domains shown) VH: EVQLVQSGAEVKKPGESLKISCKGSGYSFTSYWIAWVRQMPGKGLEWMGTIYPGDSDTRYSPSFQGQVTISADKSISTAYLQWSSLKASDTAMYFCARQRTFYYDSSDYFDYWGQGTLVTVSS VL: DIQMTQSPSSVSASVGDRVTITCRASQGISSWLAWYQQKPGKAPKLLIYAASSLQNGVPSRFSGSGSGTDFTLTISSLQPEDFATYFCQQADSHPRTFGQGTKLEIK	fold	2.84
V86 (antibody, V domains shown) VH: EVQLVQSGAEVKKPGESLKISCKGSGYSFGSYWLAWVRQMPGKGLEWMGIIYPGDSDTRYSPSFEGQVTISADKSISTAYLQWSSLKASDTAMYFCARSRTFYYDSSDYFDYWGQGTLVTVSS VL: DIQMTQSPSSVSASVGDRVTITCRASQGISSWLAWYQQKPGKAPKLLIYAASSRQNGVPSRFSGSGSGTDFTLTISSLQPEDFATYFCQQADSFPRTFGQGTKLEIK	fold	5.02
V48 (antibody, V domains shown) VH: EVQLVQSGAEVKKPGESLKISCKGSGYSFGSYWIAWVRQMPGKGLEWMGIIYPGDSDVRYSPSFQGQVTISADKSISTAYLQWSSLKASDTAMYFCARMRTFYYDSSDYFDYWGQGTLVTVSS VL: DIQMTQSPSSVSASVGDRVTITCRASQGISSWLAWYQQKPGKAPKLLIYAASSLQTGVPSRFSGSGSGTDFTLTISSLQPEDFATYFCQQADSLPRTFGQGTKLEIK	fold	2.54
